Assay: Therapeutic index, ratio of EC50 for NHBE cells to EC50 for human A549 cells harboring KRAS mutant
Assay type: cell-based
Conditions: NHBE cells versus A549 cells harboring KRAS mutant, read-out: Ratio EC50
Measurement Kind: selectivity ratio

Problem: Using the record for COc1ccc2c(c1)C(=O)/C(=C/c1ccc3[nH]ccc3c1)CC2 , state its measured selectivity ratio.
Result: > 18
